Here the recorded Zeta-Potential / mV is given for each entry.
procedure.summary: Zeta-potential measurement (dynamic light scattering)
Assay type: physicochemical
Where a SMILES comes first, the peptide text is derived from it. The star is where a group is joined. Fmoc = O=C(OCC1c2ccccc2-c2ccccc21)*; Palmitoyl = CCCCCCCCCCCCCCCC(=O)*
Express your answer in mV, writing the number without its unit.

// worked examples, Zeta-Potential / mV included
INSERT INTO assay_data (compound, unit_descriptor, measured_number) VALUES
  ('CCCCCCCCCCCCCCCC(=O)N[C@H](C(=O)N[C@H](C(=O)N[C@H](C(=O)N[C@@H](C)C(=O)N[C@@H](C)C(=O)N[C@@H](C)C(=O)N[C@@H](CCCCN)C(=O)N[C@@H](CCCCN)C(=O)N[C@@H](CCCCN)C(N)=O)C(C)C)C(C)C)C(C)C [PA1] (Palmitoyl-VVVAAAKKK-NH2)', 'mV', 22.2),
  ('CCCCCCCCCCCCCCCC(=O)N[C@@H](C)C(=O)NCC(=O)NCC(=O)N[C@@H](CCCNC(=N)N)C(=O)N[C@H](C(=O)N[C@@H](CCCCN)C(N)=O)C(C)C [Pat18, C16-AGGRVK-NH2] (Palmitoyl-AGGRVK-NH2)', 'mV', 15.9),
  ('CC(C)[C@H](NC(=O)OCC1c2ccccc2-c2ccccc21)C(=O)N[C@H](C(=O)N[C@H](C(=O)N[C@@H](C)C(=O)N[C@@H](C)C(=O)N[C@@H](C)C(=O)N[C@@H](CCCCN)C(=O)N[C@@H](CCCCN)C(=O)N[C@@H](CCCCN)C(N)=O)C(C)C)C(C)C [Pat12] (Fmoc-VVVAAAKKK-NH2)', 'mV', 15.2);

Kindly review the next compound as well.
CCCCCCCCCCCCCCCC(=O)N[C@@H](CC(C)C)C(=O)N[C@@H](CC(C)C)C(=O)N[C@@H](CC(C)C)C(=O)N[C@@H](CCCCN)C(=O)N[C@@H](CCCCN)C(N)=O [Pat23, C16-LLLKK-NH2] (Palmitoyl-LLLKK-NH2) yielded Zeta-Potential / mV of 20.9

---

Test system: HIV-1;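 note: TZM-bl reporter cells exposed to HIV-1 with peptide fibrils, infection read out as β-galactosidase luminescence, compared with virus alone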
measurement.context: relative to virus only
Where no end group is shown, it is not given here. The star is where a group is joined. 2‑naphthylmethyl = c1ccc2cc(C*)ccc2c1; Palmitoyl = CCCCCCCCCCCCCCCC(=O)*
Examples of substances with documented Infectivity enhancing N fold at 1.3 µM follow.
Write the answer as a number in N fold, unit excluded.

INSERT INTO results (substance, unit_descriptor, measured_number) VALUES
  ('C16-ester-SVVVAAAKKK-NH2 (S(Palmitoyl)VVVAAAKKK-NH2; N-terminus assumed; SMILES CCCCCCCCCCCCCCCC(=O)OC[C@H](N)C(=O)N[C@H](C(=O)N[C@H](C(=O)N[C@H](C(=O)N[C@@H](C)C(=O)N[C@@H](C)C(=O)N[C@@H](C)C(=O)N[C@@H](CCCCN)C(=O)N[C@@H](CCCCN)C(=O)N[C@@H](CCCCN)C(N)=O)C(C)C)C(C)C)C(C)C) [Pat1]', 'N fold', 17);

C16-thioester-CVVVAAAKKK-NH2 (C(Palmitoyl)VVVAAAKKK-NH2; N-terminus assumed; SMILES CCCCCCCCCCCCCCCC(=O)SC[C@H](N)C(=O)N[C@H](C(=O)N[C@H](C(=O)N[C@H](C(=O)N[C@@H](C)C(=O)N[C@@H](C)C(=O)N[C@@H](C)C(=O)N[C@@H](CCCCN)C(=O)N[C@@H](CCCCN)C(=O)N[C@@H](CCCCN)C(N)=O)C(C)C)C(C)C)C(C)C) [Pat3] has a reported Infectivity enhancing N fold at 1.3 µM of 11

What the record says about C16-disulfide-CVVVAAAKKK-NH2 (not fully specified (residue 1); printed as C16-disulfide-CVVVAAAKKK-NH2) [Pat2] : Infectivity enhancing N fold at 1.3 µM is 4

Form: substance = Nap-VVVAAAKKK-NH2 ({2‑naphthylmethyl}-VVVAAAKKK-NH2; SMILES CC(C)[C@H](NCc1ccc2ccccc2c1)C(=O)N[C@H](C(=O)N[C@H](C(=O)N[C@@H](C)C(=O)N[C@@H](C)C(=O)N[C@@H](C)C(=O)N[C@@H](CCCCN)C(=O)N[C@@H](CCCCN)C(=O)N[C@@H](CCCCN)C(N)=O)C(C)C)C(C)C) [Pat13] ; Infectivity enhancing N fold at 1.3 µM = 1

These entries and their values trace back to patent EP4458977A1.
